testedSystem: human GLP-1 receptor (human, UniProt P43220 24-463)
protocolText: cell-based or functional assay
Numbered stars: 1 amine (or outer) side, 2 acyl side, 3 side chain; on linkers, the order of the positions; unused ones are H or OH. Square brackets hold non-standard residues; d marks the D form. Side chains are listed from the residue outwards. Ends that are not written are not given here. * marks the point of attachment. Undecanoyl(11-OPh(4-COOH)) = O=C(O)c1ccc(OCCCCCCCCCCC(=O)*)cc1; γGlu = O=C(O)[C@H](CCC(=O)[*:2])N[*:1]; εLys = N[C@@H](CCCCN[*:1])C(=O)[*:2]; Aib = CC(C)(N)C(=O)O
observable: EC50/pM (0% HSA), In vitro potency (CRE luciferase)
Output should be the measured figure followed by the unit it is expressed in.

Recorded results for 3 binders are shown here.
H[Aib]EGTFTSDVSSYLEEQAAK([εLys-γGlu-γGlu-Undecanoyl(11-OPh(4-COOH))])EFIEWLVRGRK([εLys-γGlu-γGlu-Undecanoyl(11-OPh(4-COOH))]) :: 1.5 pM
HXEGTFTSDVSSYLEGQAAKEFIAWLVQGRK (Aib at 8; Lys 26 and Lys 37 each acylated at the epsilon-amino group with the side chain given in the name (numbering of GLP-1(7-37), His = 7)) :: 8.7 pM
XXEGTFTSDVSSYLEGQAAKEFIAWLVRGRK (Imp (imidazopropionyl, des-amino histidine) at 7; Aib at 8; Lys 26 and Lys 37 each acylated at the epsilon-amino group with the side chain given in the name (numbering of GLP-1(7-37))) :: 9.4 pM

Here is another binder to look at.
input: Need EC50/pM (0% HSA), In vitro potency (CRE luciferase) of HXEGTFTSDVSSYLEGQAAKEFIAWLVHGRK (Aib at 8; Lys 26 and Lys 37 each acylated at the epsilon-amino group with the side chain given in the name (numbering of GLP-1(7-37), His = 7)) , thanks.
output: 7.8 pM
